- Tested on: NCI-H727
- assay_remarks: relative viability (nuclei count vs DMSO), 5 days (fraction); higher = more cells survive
- test_parameters: first compound 8 µM
In this section we review reported relative viability values for a set of compounds.
A bare number is all that is needed in reply.

These recorded examples may help you get a feel for the data.
CCCCCCCCCCCC1=C(O)C(=O)C=C(O)C1=O [Embelin] + CC(C)C[C@H](NC(=O)[C@H](Cc1ccccc1)NC(=O)c1cnccn1)B(O)O [Bortezomib] (partner 0.002 µM) = 0.798
CCCCCCCCCCCC1=C(O)C(=O)C=C(O)C1=O [Embelin] + CS(=O)(=O)CCNCc1ccc(-c2ccc3ncnc(Nc4ccc(OCc5cccc(F)c5)c(Cl)c4)c3c2)o1 [Lapatinib] (partner 2 µM) = 0.738
CCCCCCCCCCCC1=C(O)C(=O)C=C(O)C1=O [Embelin] + CCNC(=O)c1noc(-c2cc(C(C)C)c(O)cc2O)c1-c1ccc(CN2CCOCC2)cc1 [Luminespib] (partner 0.01 µM) = 0.386
CCCCCCCCCCCC1=C(O)C(=O)C=C(O)C1=O [Embelin] + N=C(N)NC(=N)NCCc1ccccc1 [Phenformin] (partner 250 µM) = 0.5

Please find the next compound below.
State relative viability (NCI-H727) of CCCCCCCCCCCC1=C(O)C(=O)C=C(O)C1=O [Embelin] + COc1cccc2cc(-c3nc([C@H]4CC[C@H](C(=O)O)CC4)n4ncnc(N)c34)[nH]c12 [OSI-027] (partner 0.5 µM) .
0.709

###

- Tested on: CAL-12T
- assay_remarks: relative viability (nuclei count vs DMSO), 5 days (fraction); higher = more cells survive
- test_parameters: first compound 0.8 µM
measure: relative viability
A bare number is all that is needed in reply.

These recorded examples may help you get a feel for the data.
CCCCCCCCCCCC1=C(O)C(=O)C=C(O)C1=O [Embelin] + NC(=O)Nc1cc(-c2cccc(F)c2)sc1C(=O)N[C@H]1CCCNC1 [AZD7762] (partner 0.2 µM) = 0.697
CCCCCCCCCCCC1=C(O)C(=O)C=C(O)C1=O [Embelin] + O=C(CCCCCCC(=O)Nc1ccccc1)NO [Vorinostat] (partner 1 µM) = 0.779

Please find the next molecule below.
Return relative viability for the following molecule: CCCCCCCCCCCC1=C(O)C(=O)C=C(O)C1=O [Embelin] + CC(=O)c1c(C)c2cnc(Nc3ccc(N4CCNCC4)cn3)nc2n(C2CCCC2)c1=O [Palbociclib] (partner 0.5 µM)
0.538

###

- System: LOU-NH91
- assay_remarks: relative viability (nuclei count vs DMSO), 5 days (fraction); higher = more cells survive
- test_parameters: first compound 0.3162 µM
Note to self: relative viability under 0.5 means 1, ties and anything higher get 0.

CC(C)Oc1cc(Nc2nc(N[C@@H](C)c3ccc(F)cn3)ncc2Cl)n[nH]1 [AZ23] + O=C(c1cc(Cc2n[nH]c(=O)c3ccccc23)ccc1F)N1CCN(C(=O)C2CC2)CC1 [Olaparib] (partner 8 µM) = 0
CC(C)Oc1cc(Nc2nc(N[C@@H](C)c3ccc(F)cn3)ncc2Cl)n[nH]1 [AZ23] + Nc1ncn([C@H]2C[C@H](O)[C@@H](CO)O2)c(=O)n1 [Decitabine] (partner 2 µM) = 0
CC(C)Oc1cc(Nc2nc(N[C@@H](C)c3ccc(F)cn3)ncc2Cl)n[nH]1 [AZ23] + CCNC(=O)c1noc(-c2cc(C(C)C)c(O)cc2O)c1-c1ccc(CN2CCOCC2)cc1 [Luminespib] (partner 0.01 µM) = 1
CC(C)Oc1cc(Nc2nc(N[C@@H](C)c3ccc(F)cn3)ncc2Cl)n[nH]1 [AZ23] + Cc1nc(NC(=O)N2CCC[C@H]2C(N)=O)sc1-c1ccnc(C(C)(C)C(F)(F)F)c1 [Alpelisib] (partner 2 µM) = 0

For the next question, use this compound.
Is it true that relative viability reported for CC(C)Oc1cc(Nc2nc(N[C@@H](C)c3ccc(F)cn3)ncc2Cl)n[nH]1 [AZ23] + CC(=O)c1c(C)c2cnc(Nc3ccc(N4CCNCC4)cn3)nc2n(C2CCCC2)c1=O [Palbociclib] (partner 0.5 µM) is less than 0.5?
0

###

- Tested on: NCI-H1623
- assay_remarks: relative viability (nuclei count vs DMSO), 5 days (fraction); higher = more cells survive
- test_parameters: first compound 0.04 µM
In this section we review reported relative viability values for a set of molecules.
A bare number is all that is needed in reply.

These recorded examples may help you get a feel for the data.
COc1cc(N2CCC(C(N)=O)CC2)ccc1Nc1nc(N)c(Cl)c(Nc2ccccc2S(=O)(=O)C(C)C)n1 [HG-5-88-01] + N=C(N)NC(=N)NCCc1ccccc1 [Phenformin] (partner 250 µM) = 0.651
Clc1ccc(Nc2nnc(Cc3ccncc3)c3ccccc23)cc1 [Vatalanib] + COc1cccc2cc(-c3nc([C@H]4CC[C@H](C(=O)O)CC4)n4ncnc(N)c34)[nH]c12 [OSI-027] (partner 0.5 µM) = 0.39
C[C@@H]1CN(CC(=O)Nc2ccc3c(c2)Cc2cccc(-c4cc(=O)cc(N5CCOCC5)o4)c2S3)C[C@H](C)O1 + CCNC(=O)c1noc(-c2cc(C(C)C)c(O)cc2O)c1-c1ccc(CN2CCOCC2)cc1 [Luminespib] (partner 0.01 µM) = 0.439
Clc1ccc(Nc2nnc(Cc3ccncc3)c3ccccc23)cc1 [Vatalanib] + Cc1nc(Nc2ncc(C(=O)Nc3c(C)cccc3Cl)s2)cc(N2CCN(CCO)CC2)n1 [Dasatinib] (partner 0.075 µM) = 0.449

Return relative viability for the following molecule: COc1cc(N2CCC(C(N)=O)CC2)ccc1Nc1nc(N)c(Cl)c(Nc2ccccc2S(=O)(=O)C(C)C)n1 [HG-5-88-01] + COc1cc2c(Oc3ccc(NC(=O)C4(C(=O)Nc5ccc(F)cc5)CC4)cc3F)ccnc2cc1OCCCN1CCOCC1 [Foretinib] (partner 0.25 µM)
0.925

###

- System: NCI-H322M
- assay_remarks: relative viability (nuclei count vs DMSO), 5 days (fraction); higher = more cells survive
- test_parameters: first compound 0.3162 µM
measure: relative viability
A bare number is all that is needed in reply.

CC(C)Oc1cc(Nc2nc(N[C@@H](C)c3ccc(F)cn3)ncc2Cl)n[nH]1 [AZ23] + CS(=O)(=O)CCNCc1ccc(-c2ccc3ncnc(Nc4ccc(OCc5cccc(F)c5)c(Cl)c4)c3c2)o1 [Lapatinib] (partner 2 µM) = 0.614

State relative viability (NCI-H322M) of CC(C)Oc1cc(Nc2nc(N[C@@H](C)c3ccc(F)cn3)ncc2Cl)n[nH]1 [AZ23] + CCNC(=O)c1noc(-c2cc(C(C)C)c(O)cc2O)c1-c1ccc(CN2CCOCC2)cc1 [Luminespib] (partner 0.01 µM) .
1.08

State relative viability (NCI-H322M) of CC(C)Oc1cc(Nc2nc(N[C@@H](C)c3ccc(F)cn3)ncc2Cl)n[nH]1 [AZ23] + C[C@]1(O)C[C@@H](c2nc(-c3ccc4ccc(-c5ccccc5)nc4c3)c3c(N)nccn32)C1 [Linsitinib] (partner 1 µM) .
1.13

State relative viability (NCI-H322M) of CC(C)Oc1cc(Nc2nc(N[C@@H](C)c3ccc(F)cn3)ncc2Cl)n[nH]1 [AZ23] + Cc1nc(NC(=O)N2CCC[C@H]2C(N)=O)sc1-c1ccnc(C(C)(C)C(F)(F)F)c1 [Alpelisib] (partner 2 µM) .
0.823

###

- Test system: A549
- assay_remarks: relative viability (nuclei count vs DMSO), 5 days (fraction); higher = more cells survive
- test_parameters: first compound 0.1265 µM
In this section we review reported relative viability values for a set of compounds.

State relative viability (A549) of COc1cc(N2CCC(C(N)=O)CC2)ccc1Nc1nc(N)c(Cl)c(Nc2ccccc2S(=O)(=O)C(C)C)n1 [HG-5-88-01] + Cc1nc(NC(=O)N2CCC[C@H]2C(N)=O)sc1-c1ccnc(C(C)(C)C(F)(F)F)c1 [Alpelisib] (partner 2 µM) .
0.715

State relative viability (A549) of C[C@@H]1CN(CC(=O)Nc2ccc3c(c2)Cc2cccc(-c4cc(=O)cc(N5CCOCC5)o4)c2S3)C[C@H](C)O1 + CS(=O)(=O)N1CCN(Cc2cc3nc(-c4cccc5[nH]ncc45)nc(N4CCOCC4)c3s2)CC1 [Pictilisib] (partner 1 µM) .
0.594

###

- System: NCI-H2347
- assay_remarks: relative viability (nuclei count vs DMSO), 5 days (fraction); higher = more cells survive
- test_parameters: first compound 1.265 µM
measure: relative viability
A bare number is all that is needed in reply.

These recorded examples may help you get a feel for the data.
Clc1ccc(Nc2nnc(Cc3ccncc3)c3ccccc23)cc1 [Vatalanib] + Cc1nc(NC(=O)N2CCC[C@H]2C(N)=O)sc1-c1ccnc(C(C)(C)C(F)(F)F)c1 [Alpelisib] (partner 2 µM) = 0.963
COc1cc(N2CCC(C(N)=O)CC2)ccc1Nc1nc(N)c(Cl)c(Nc2ccccc2S(=O)(=O)C(C)C)n1 [HG-5-88-01] + C[C@]1(O)C[C@@H](c2nc(-c3ccc4ccc(-c5ccccc5)nc4c3)c3c(N)nccn32)C1 [Linsitinib] (partner 1 µM) = 0.959
Clc1ccc(Nc2nnc(Cc3ccncc3)c3ccccc23)cc1 [Vatalanib] + CC(=O)Nc1cccc(-n2c(=O)n(C3CC3)c(=O)c3c(Nc4ccc(I)cc4F)n(C)c(=O)c(C)c32)c1 [Trametinib] (partner 0.02 µM) = 0.266

Please find the next compound below.
Return relative viability for the following compound: COc1cc(N2CCC(C(N)=O)CC2)ccc1Nc1nc(N)c(Cl)c(Nc2ccccc2S(=O)(=O)C(C)C)n1 [HG-5-88-01] + Cc1cc(Nc2cc(N3CCN(C)CC3)nc(Sc3ccc(NC(=O)C4CC4)cc3)n2)n[nH]1 [Tozasertib] (partner 0.1 µM)
0.392
